assay_comment: DUSP6 inhibitors restoring Erk phosphorylation by chemical complementation, primary imaging in DUSP6-transfected HeLa (AID 609)
cond: HeLa MKP-3 transfected, phospho-Erk imaging KS statistic; measured here: nuclear c-Myc green intensity z-score; at 10 µM; cells stimulated with TPA for 15 min
Label label 1 when z-score is at or above -0.3; otherwise label label 0.

# compound, category_label
rows = [
    ("CCOC(=O)/C=c1\\s/c(=C(\\C#N)C(=O)OCC)n(-c2ccccc2)c1=O", "label 0"),
    ("CCOC(=O)c1c(-c2cccs2)csc1NC(=O)c1ccncc1", "label 1"),
    ("CCc1cc(=O)oc2cc(C)c(CN3CCCCC3)c(O)c12", "label 1"),
    ("COC(=O)C1CCN(c2nc3ccccc3nc2C(C#N)C(=O)NCCc2ccccc2)CC1 (stereo not drawn)", "label 1"),
    ("CCSc1nc2sc3c(c2c(=O)n1C1CCCCC1)CCN(C)C3", "label 1"),
    ("CCOC(=O)C1=C(C)NC(=O)C1CC(=O)Nc1ccccc1 (stereo not drawn)", "label 1"),
    ("COc1ccc(/C(O)=C2\\C(=O)C(=O)N(c3cc(C)on3)C2c2ccccc2OC)cc1C (stereo not drawn)", "label 0"),
    ("COc1ccc(NC(=O)c2c(C)cc(=O)oc2C)c(OC)c1", "label 1"),
    ("c1ccc2c(c1)[nH]c1c(N3CCSCC3)ncnc12", "label 0"),
    ("Cc1cc(=O)oc2c(CN3CCC(C)CC3)c(O)c(Cl)cc12", "label 1"),
    ("CCOC(=O)C(C)Oc1ccc2c(C)cc(=O)oc2c1C(C)=O (stereo not drawn)", "label 1"),
    ("CC(C)CNc1nc2c(c(=O)n(C)c(=O)n2C)n1Cc1cccc(Br)c1", "label 0"),
    ("O=C1NC(=O)C(c2cn(-c3ccccc3)nc2-c2ccc(F)cc2)N1 (stereo not drawn)", "label 0"),
    ("Cc1ccc(-n2ncc3c(N4CCC(C(N)=O)CC4)ncnc32)c(C)c1", "label 1"),
    ("Nc1nc2n(n1)C(c1ccc(F)cc1)CC(c1ccc(F)cc1)N2 (stereo not drawn)", "label 1"),
    ("O=C(c1ccc2c3c(cccc13)C(=O)N(O)C2=O)N1CCCCC1", "label 0"),
    ("COc1ccc(CN(C)CCc2ccccn2)c(OC)c1OC", "label 0"),
    ("CC(NC(=O)CSc1nnc(COc2ccccc2)o1)c1ccccc1 (stereo not drawn)", "label 1"),
    ("Nc1ccc2oc(-c3cc(Br)ccc3Cl)nc2c1", "label 0"),
    ("CC(=O)/C(C#N)=C1\\NC(=O)C(Cc2ccccc2)S1 (stereo not drawn)", "label 1"),
    ("CCCC(CCC(=O)Nc1ccc(C(=O)OCC)cc1)C(=O)O (stereo not drawn)", "label 1"),
    ("OC1(C2(O)CC(c3ccccc3)ON2)CCCCC1 (stereo not drawn)", "label 1"),
    ("Cc1ccc(N(CC(O)CN(C)C)S(=O)(=O)c2ccccc2)cc1 (stereo not drawn)", "label 1"),
]

====

assay_comment: inhibitors of TNFa-induced NFkB p65 translocation, primary screen, imaging, HUVEC, MLSMR starter and 10KST1 sets (AID 438);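 also: compound added about 3h40 before a 20 min TNFalpha stimulation; signal is the nuclear over cytoplasmic p65 intensity ratio per well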
cond: HUVEC TNFa-induced p65 nuclear translocation; at 2 µM, stronger effect = higher value, 0% TNFa-plus-vehicle, 100% no-TNFa wells
This listing pairs molecules with measured inhibition.

# molecule, measure_unit, inhibition
data = [
    ("CC(C)Sc1nnc2n(CCc3ccccc3)c(=O)c3c4c(sc3n12)COC(C)(C)C4", "%", -8),
    ("CCOc1cccc(C(=O)N(Cc2ccc(F)cc2)C2CCS(=O)(=O)C2)c1 (stereo unspecified)", "%", 9.3),
    ("CN1Cc2c(N3CCOCC3)nc(SCc3ccccc3)c(C#N)c2CC1(C)C", "%", -3.1),
    ("CCN1C(=O)CC(N2CCC(Nc3ccc(F)cc3)CC2)C1=O (stereo unspecified)", "%", -9.7),
    ("Cc1cccc(CCNC(=O)C2CCCN(S(=O)(=O)c3cnc[nH]3)C2)c1 (stereo unspecified)", "%", 16.1),
    ("COC(=O)CSCC(=O)Nc1cc2c(cc1C(C)=O)OCO2", "%", -6.3),
]

====

assay_comment: DUSP6 inhibitors restoring Erk phosphorylation by chemical complementation, primary imaging in DUSP6-transfected HeLa (AID 609)
cond: HeLa MKP-3 transfected, phospho-Erk imaging KS statistic; measured here: nuclear c-Myc green intensity z-score; at 10 µM; cells stimulated with TPA for 15 min

# molecule, z-score
rows = [
    ("CSc1nc(N)nc(SCC(=O)C23CC4CC(CC(C4)C2)C3)c1C#N", 0.314),
    ("COCCCNc1nc2c(c(=O)[nH]c(=O)n2C)n1CC(O)COc1ccccc1 (stereo not given)", -0.833),
    ("Cn1c(Cn2cnc(Cl)c2Cl)nc2ccccc21", 1.34),
    ("O=S(=O)(c1cccc(-c2csc(-c3ccccc3)n2)c1)N1CCOCC1", -0.235),
    ("COC(=O)/C(C#N)=C1/SC=C(C)N1c1ccccc1", -1.23),
    ("c1ccc2c(c1)CCN(c1ncnc3c1[nH]c1ccccc13)C2", -1.2),
    ("Cc1ccc(Cn2ncc3c(N4CCOCC4)ncnc32)cc1", -0.178),
    ("Brc1ccc(-c2cnnc(N3CCCC3)n2)cc1", 0.891),
    ("c1ccc(-n2ncc3c(NCC4CCCO4)ncnc32)cc1 (stereo not given)", -0.155),
    ("CC(NC(=O)Nc1nnc(C(F)(F)F)s1)(C(F)(F)F)C(F)(F)F", 0.624),
    ("CSc1nc2sc3c(c2c2nnnn12)CCC3", 0.543),
    ("CCC(=O)Nc1nc2ccccc2n1Cc1ccccc1C", 0.0083),
    ("CC(O)(C#CCN1CCOCC1)c1ccccc1 (stereo not given)", 0.285),
    ("O=C(NCc1ccccn1)c1coc(=O)c(Br)c1", 0.668),
    ("O=C(CN1C(=O)c2ccccc2S1(=O)=O)NCCSCc1ccco1", 0.199),
    ("CCc1cc(=O)oc2cc(C)c(CN3CCCC3)c(O)c12", -0.164),
    ("CCSc1nnc(NC(NC(=O)c2ccco2)(C(F)(F)F)C(F)(F)F)s1", -0.75),
    ("Cc1nnc2n(-c3ccccc3)c(=O)c3c4c(sc3n12)COC(C)(C)C4", -0.0554),
    ("COc1ccc(C(=O)c2oc3nc(C)cc(C)c3c2N)cc1", -1.17),
    ("C/C(=N/n1cnnc1)c1cccnc1", -0.833),
    ("O=S(=O)(c1ccccc1)N(CC(O)CN1CCCCC1)c1ccccc1 (stereo not given)", 0.0372),
    ("CCCc1cc(=O)oc2c(CN3CCCC3)c(O)ccc12", -0.952),
    ("Cc1nc(NCCO)c(C#N)c2c1COC(C)(C)C2", 1.94),
    ("O=C1OC(N2CCN(C/C=C/c3ccccc3)CC2)c2ccccc21 (stereo not given)", -0.597),
    ("N#Cc1nc(COc2ccccc2)oc1N1CCCC1", 1.68),
]

====

assay_comment: inhibitors of Chlamydomonas gravitaxis, primary screen, whole organism, Chlamydomonas reinhardtii, WT vs cilia-less mutant, absorbance, 96-well (AID 463189);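 also: 0% = wild type cc124 cells in DMSO and 100% = ciliumless bld1 mutant cells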
cond: OD600 absorbance, 2 days, at 10 µM, stronger effect = higher value
Listed here are molecules together with their documented inhibition.

# molecule, inhibition / %
records = [
    ("Cc1ccc(NC(=O)CSc2nnc(-c3ccco3)c(-c3ccco3)n2)cc1", 11.9),
    ("CCOc1ccc(C2=Nn3c(nnc3-c3ccccc3OC)SC2)cc1", -11.5),
    ("C=CCNc1nc(N2CCOCC2)c(C#N)c2c1CN(C)CC2", 1.91),
    ("O=C(NCc1ccccc1)C1C(=O)N(Cc2ccccc2)C(=O)C1C1(O)CCCC1 (centres undefined)", -5.5),
    ("COC(=O)CC(=O)Cc1nc(N)nc(Nc2ccc(C)c(C)c2)n1", 1.81),
    ("CC(=O)NC(=O)Nc1sc(=S)n(C)c1C", 30.1),
    ("Cc1cccc(NC(=O)c2c(C)cc(=O)oc2C)n1", -9.96),
    ("O=C(COc1ccc(-c2nnc(N3CCCCC3)c3ccccc23)cc1)N1CCCCC1", 34.6),
    ("CCCCCNc1nc(N2CCCC2)c2c(c1C#N)CCN(C)C2", 165),
]

====

assay_comment: inhibitors of E-selectin induction by TNFa, primary screen, imaging, HUVEC, immunofluorescence, MLSMR starter and 10KST1 sets (AID 487);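 also: signal is fraction of cell area covered by stained E-selectin grains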
cond: HUVEC TNFalpha-induced E-selectin immunofluorescence imaging, at 2 µM; stronger effect = higher value
Each entry below carries its recorded inhibition.

# compound, measure_unit, inhibition
records = [
    ("O=C1CCCC2=C1C(c1ccc(Br)cc1)c1c([nH]c(=S)[nH]c1=O)N2 (stereo unspecified)", "%", -41.1),
    ("C=CCN(CC=C)c1nc2ccccc2nc1C(C#N)C(=O)OC(C)C (stereo unspecified)", "%", -48.1),
    ("O=c1[nH]cnc2c1cnn2Cc1ccccc1", "%", -58.3),
    ("Cc1cc(C)n(-c2c(F)c(F)c(CN3CCCCC3)c(F)c2F)n1", "%", 29.4),
    ("COC(=O)c1cc(Br)c(=O)n(-c2cc(C)on2)c1", "%", 23.3),
    ("CCC1Oc2ccc(C)cc2N(CC(=O)NCCCN2CCCCC2CC)C1=O (stereo unspecified)", "%", -34.9),
    ("CCN(CC)S(=O)(=O)c1ccc(Br)c(OC)c1", "%", -15.1),
    ("N#CC1=C(SCC(=O)NC2CCCCC2)NC(=O)CC1c1ccco1 (stereo unspecified)", "%", -10.6),
    ("CCOC(=O)N1CCN(CC(O)COc2ccccc2C(C)CC)CC1 (stereo unspecified)", "%", -35.9),
    ("Cc1cccc(OCCNC(=O)c2ncn[nH]2)c1", "%", -263),
    ("CN1CCN(Cc2nc3c(c(=O)[nH]c(=O)n3C)n2CCc2ccccc2)CC1", "%", -34.7),
]
